# Assay System: T1, recombinant human IL4Rα-his protein (in house made) (human, UniProt P24394 26-232, limits assumed)
# T1 construct: also called Human IL4Ra-his
# Method: competitive ELISA, blocks biotin-IL4Rα-his binding to coated Benchmark (competitor)
Recorded pIC50 for the following binders
pIC50 (log units): -log10 of the concentration in mol/L.

Inquiry: Record request: pIC50 value, item mouse antibody B8G11F2B7G5E8 (antibody, V domains shown, Mouse hybridoma mAb; also called Mouse B8G11F2B7G5E8; mAb B8G11F2B7G5E8) VH: EVQLQQSGADLVRPGASVKLSCTASGFNIKDTYMHWVKQRPEQGLEWVGRIDPTNGYTIYASKFQGKATITADTSSNTAYMQLSSLTSGDTAVYHCVSRRPWFAYWGQGTLVTVSA VL: DILMTQTPLSLPVSLGAQASISCRSSQSIVHSNGNTYLEWYLQKPGQSPKLLIYKVTNRFSGVPDRFSGSGSGTDFTLKISRVEAEDLGIYYCFQGSHVPYTFGGGTKLEIK
Reply text: 10.70

Inquiry: Record request: pIC50 value, item mouse antibody B1D2F7D3B5 (antibody, V domains shown, Mouse hybridoma mAb) VH: EVKLVESGGGLVKPGGSLKLSCAASGFTFSSYAMSWVRQTPEKRLEWVASISSGDSTYYLDSVKGRFTISRDNAMNILYLQMSSLRSEDTAVYYCERSGGSAPYWGQGTLVSVSA VL: QIVLTQSPAIMSASPGEMVTISCSASSSVSYMYWYQQKPGSSPKPWIYRTSNLASGVPARFSGSGSGTSYSLTISSMEAEDAATYYCQQYHSFPLTFGAGTKLELK
Reply text: 10.70
